molecular target: human H4 receptor (Homo sapiens); assay: biochemical
Counter-ions that a name gives are not always drawn.
Entries annotated with measured IC50

Observe how each entry below is paired with its result.
CN1CCC(OC2c3ccccc3CCn3cc(-c4ccc(C(=O)OC(C)(C)C)cc4)nc32)CC1 (centres unmarked) [Example 36] | < 0.03 µM
COc1cccc(-c2nc3n(c2C)CCc2ccccc2C3OC2CCN(C)CC2)c1 (centres unmarked) [Example 150] | < 0.03 µM
CN1CCC(OC2c3ccccc3CCn3cc(-c4ccccc4)nc32)CC1 (centres unmarked) [Example 4] | < 0.3 µM
Cc1ccccc1-c1nc2n(c1C)CCc1ccccc1C2OC1CCN(C)CC1 (centres unmarked) [Example 147] | < 0.03 µM

**Query** State its IC50 on human H4 receptor (Homo sapiens): C=C(C)Cc1nc2n(c1C#N)CCc1ccccc1C2OC1CCN(C)CC1 (centres unmarked) [Example 259]
**Result** < 0.3 µM

**Query** Recorded IC50 for CN1CCC(OC2c3ccccc3CCn3cc(CCc4ccccc4)nc32)CC1 (centres unmarked) [Example 38, oxalate] with human H4 receptor (Homo sapiens), please?
**Result** < 0.03 µM

**Query** Fill in the recorded IC50 for this compound, with human H4 receptor (Homo sapiens) as test system: CN1CCC(OC2c3ccccc3CCn3cc(C#CCNC(=O)OC(C)(C)C)nc32)CC1 (centres unmarked) [Example 72]
**Result** < 0.03 µM

---

target: human H4 receptor (Homo sapiens, UniProt Q9H3N8); experiment: biochemical
Sequence (Q9H3N8 whole entry): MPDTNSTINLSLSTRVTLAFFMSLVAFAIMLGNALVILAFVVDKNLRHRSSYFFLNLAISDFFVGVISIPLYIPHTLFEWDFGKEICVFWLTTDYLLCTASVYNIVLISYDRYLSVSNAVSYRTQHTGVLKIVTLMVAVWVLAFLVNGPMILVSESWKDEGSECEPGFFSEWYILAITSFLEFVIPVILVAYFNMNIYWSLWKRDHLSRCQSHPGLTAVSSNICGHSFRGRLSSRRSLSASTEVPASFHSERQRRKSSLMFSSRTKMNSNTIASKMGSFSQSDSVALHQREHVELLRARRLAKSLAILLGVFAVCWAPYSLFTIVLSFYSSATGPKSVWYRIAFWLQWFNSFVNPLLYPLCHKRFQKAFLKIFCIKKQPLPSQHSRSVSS
Structures can show the parent of a compound that is named as a salt.
Let's look at some molecules and their measured Ki.

Cc1ccccc1-c1cccc2c1CCn1cc(-c3ccccc3)nc1C2OC1CCN(C)CC1 (centres unmarked) | < 1000 nM
CN1CCC(OC2c3ccccc3CCn3cc(SCCNC(=O)OC(C)(C)C)nc32)CC1 (centres unmarked) [Example 84, oxalate] | < 300 nM
CC(=O)NCCSc1ccc(-c2nc3n(c2C)CCc2ccccc2C3OC2CCN(C)CC2)cc1 (centres unmarked) [Example 163, oxalate] | < 30 nM
CN1CCC(OC2c3ccccc3CCn3c2nc(Cc2ccccc2)c3C#N)CC1 (centres unmarked) | < 300 nM
C=Cc1cn2c(n1)C(OC1CCN(C)CC1)c1ccccc1CC2 (centres unmarked) [Example 9, oxalate] | < 1000 nM

**Query** Requested read-out: Ki. Entry: CN(C)Cc1ccc(-c2cn3c(n2)C(OC2CCN(C)CC2)c2ccccc2CC3)cc1 (centres unmarked)
**Result** < 300 nM

**Query** Requested read-out: Ki. Entry: Cc1c(-c2ccc(NC(=O)OC3CCCC3)cc2)nc2n1CCc1ccccc1C2OC1CCN(C)CC1 (centres unmarked)
**Result** < 30 nM

---

target: human H4 receptor (Homo sapiens, UniProt Q9H3N8); experiment: biochemical
pIC50: −log10 of the molar value. Structures can show the parent of a compound that is named as a salt.
measurement_label: pIC50

Solved cases (3 shown):
CN1CCC(OC2c3ccccc3CCn3cc(C4=CCCCCC4)nc32)CC1 (centres unmarked) [Example 80] | > 6.52
CN1CCC(OC2c3ccccc3CCn3c2nc(-c2ccccc2)c3Cl)CC1 (centres unmarked) [Example 134] | > 7.52
CN1CCC(OC2c3ccccc3CCn3cc(-c4ccc(N(C)C(=O)OC(C)(C)C)cc4)nc32)CC1 (centres unmarked) [Example 97, oxalate] | > 7.52

**Query** Name the recorded pIC50 for CN1CCC(OC2c3ccccc3CCn3cc(-c4ccccc4Cl)nc32)CC1 (centres unmarked) [Example 26, oxalate] .
**Result** > 6.52

---

target: human H4 receptor (Homo sapiens); assay: biochemical
pIC50: −log10 of the molar value. Counter-ions that a name gives are not always drawn.
measurement_label: pIC50

CN1CCC(OC2c3ccccc3CCn3cc(SC4CCCC4)nc32)CC1 (centres unmarked) [Example 86, oxalate] | > 7.52
Cc1c(-c2ccccc2Cl)nc2n1CCc1ccccc1C2OC1CCN(C)CC1 (centres unmarked) [Example 146] | > 7.52
CN1CCC(OC2c3ccccc3CCn3cc(CCCc4ccccc4)nc32)CC1 (centres unmarked) [Example 87, oxalate] | > 7.52
CN1CCC(OC2c3ccccc3CCn3cc(-c4ccc(F)cc4)nc32)CC1 (centres unmarked) [Example 56] | > 7.52
CN1CCC(OC2c3ccccc3CCn3cc(-c4ccc(CN5CCCCCC5=O)cc4)nc32)CC1 (centres unmarked) [Example 188] | > 6.52

**Query** Recorded pIC50 for CN1CCC(OC2c3ccccc3CCn3cc(-c4ccc(C(C)(F)F)cc4)nc32)CC1 (centres unmarked) [Example 64, oxalate] with human H4 receptor (Homo sapiens), please?
**Result** > 7.52

**Query** API: value(readout= pIC50, system= human H4 receptor (Homo sapiens), query= Cc1c(-c2ccc(SCc3ccco3)cc2)nc2n1CCc1ccccc1C2OC1CCN(C)CC1 (centres unmarked) [Example 167, oxalate] )
**Result** > 7.52

**Query** Checklist item: pIC50 tested on human H4 receptor (Homo sapiens), entry CN1CCC(OC2c3ccccc3CCn3cc(-c4ccc(NC(=O)OC(C)(C)C)cc4)nc32)CC1 (centres unmarked) [Example 49] , value?
**Result** > 6.52

**Query** Short answer please: pIC50, human H4 receptor (Homo sapiens), entry CC(C)c1ccc(-c2cn3c(n2)C(OC2CCN(C)CC2)c2ccccc2CC3)cc1 (centres unmarked) [Example 32, oxalate]
**Result** > 6.52

**Query** Please state recorded pIC50 (tested on human H4 receptor (Homo sapiens)) of CN1CCC(OC2c3ccccc3CCn3cc(-c4ccsc4)nc32)CC1 (centres unmarked) [Example 12]
**Result** > 6.52

**Query** # get_value(readout= pIC50, system= human H4 receptor (Homo sapiens)) for Cc1c(C=CC(C)(C)C)nc2n1CCc1ccccc1C2OC1CCN(C)CC1 (centres unmarked) [Example 225]
**Result** > 7.52

**Query** API: value(readout=pIC50, system=human H4 receptor (Homo sapiens)) for record Cc1c(-c2ccc(SCCN)cc2)nc2n1CCc1ccccc1C2OC1CCN(C)CC1 (centres unmarked) [Example 161, oxalate]
**Result** > 7.52

---

target: human H4 receptor (Homo sapiens); test: biochemical
pKi: −log10 of the molar value. Structures can show the parent of a compound that is named as a salt.
measurement_label: pKi

CN1CCC(OC2c3ccccc3CCn3cc(Cc4ccccc4)nc32)CC1 (centres unmarked) [Example 110, oxalate] | > 6.52
CN1CCC(OC2c3cccc(CCc4ccccc4)c3CCn3cc(-c4ccccc4)nc32)CC1 (centres unmarked) [Example 249] | > 6.00
CN1CCC(OC2c3ccccc3CCn3c2nc(CCCCCc2ccccc2)c3Cl)CC1 (centres unmarked) [Example 139, oxalate] | > 7.52
Cc1cccc2c1CCn1cc(-c3ccccc3)nc1C2OC1CCN(C)CC1 (centres unmarked) [Example 236] | > 6.52

**Query** For the compound shown here, C=CCOc1ccc(-c2cn3c(n2)C(OC2CCN(C)CC2)c2ccccc2CC3)cc1 (centres unmarked) [Example 183] , give the reported pKi.
**Result** > 7.52

**Query** Query: pKi; subject: Cc1c(-c2ccccc2F)nc2n1CCc1ccccc1C2OC1CCN(C)CC1 (centres unmarked) [Example 142]
**Result** > 6.52

**Query** Requested read-out: pKi. Entry: CN1CCC(OC2c3ccccc3CCn3cc(SCc4ccco4)nc32)CC1 (centres unmarked) [Example 85, oxalate]
**Result** > 6.52

**Query** # input compound: CN1CCC(OC2c3ccccc3CCn3cc(C=CCCCc4ccccc4)nc32)CC1 (centres unmarked) [Example 89] ; wanted: its pKi
**Result** > 7.52

**Query** Find the recorded pKi belonging to Cc1c(-c2ccccc2Cl)nc2n1CCc1ccccc1C2OC1CCN(C)CC1 (centres unmarked) [Example 146] and report it.
**Result** > 7.52

**Query** Param item = Cc1c(C(O)c2ccccc2)nc2n1CCc1ccccc1C2OC1CCN(C)CC1.O=CO (centres unmarked) [Example 201, formic acid salt] ; retrieve measured pKi.
**Result** > 6.00

**Query** Would you kindly share the measured pKi for CN1CCC(OC2c3ccccc3CCn3cc(C4=CCOCC4)nc32)CC1 (centres unmarked) [Example 106] ?
**Result** > 6.00

**Query** Would you kindly share the measured pKi for CN1CCC(OC2c3ccccc3CCn3cc(C=CC(=O)OC(C)(C)C)nc32)CC1 (centres unmarked) [Example 53, oxalate] ?
**Result** > 6.00

**Query** Returns the measured pKi for the input compound. Input: CN1CCC(OC2c3ccccc3CCn3c2nc(-c2ccccc2)c3Cl)CC1 (centres unmarked) [Example 134]
**Result** > 7.52

**Query** If you can, please state the reported pKi value of CCc1cn2c(n1)C(OC1CCN(C)CC1)c1ccccc1CC2 (centres unmarked) [Example 13, oxalate] .
**Result** > 6.52

**Query** Value lookup for pKi; key = CN1CCC(OC2c3ccccc3CC(C)(C)n3cc(-c4ccccc4)nc32)CC1 (centres unmarked) [Example 230]
**Result** > 6.00

**Query** Please look up its pKi: Cc1c(-c2ccc(C(=O)N3CCC(O)CC3)cc2)nc2n1CCc1ccccc1C2OC1CCN(C)CC1 (centres unmarked) [Example 220]
**Result** > 6.52

**Query** // query pKi value for entry CN1CCC(OC2c3ccccc3CCn3cc(-c4ccc(CCOC(=O)NC(C)(C)C)cc4)nc32)CC1 (centres unmarked) [Example 200]
**Result** > 6.52
